# tested_system: T1, HLA-DRB1*1301 (human)
# T1 chain 1: not shown
# T1 chain 2: not shown
# assay_name: competition assay on purified, immobilised HLA-DR against the biotinylated reference peptide, pH 4.5
endpoint_name: pIC50
Quick note: pIC50 means taking -log10 of the concentration in moles per liter.

pIC50 reading for TERVRLVTRHIYNREE (modifications not checked) [reference peptide B1 21-36] : 6.88
